growth listing for selected compounds.
tested on: NCI-H522 lung; assay: NCI-60 one-dose screen, 48 h (100 = growth as untreated, 0 = no growth, -100 = all killed); details: 10 µM unless noted
About 83,000 compounds went through this panel and 20% of them were active in at least one assay; those are over-represented in the sample as a whole.
quantity: growth (%)

• CCCCn1c(C(=O)c2c[nH]c3ccccc23)n[nH]c1=S = 83.3
• NCCOCCOc1ccccc1 = 93.1
• N#C/C(=C\c1ccccc1Cl)c1cc2ccccc2[nH]1 = 82.5
• O=C(/C=C/C12c3ccccc3C(c3ccccc31)C1C(=O)NC(=O)C12)c1ccncc1 (stereo not given) = 28.5
• O=C(Nc1ncc(Cc2cccc(C(F)(F)F)c2)s1)c1ccc2c(c1)OCCO2 = 8.7
• Cc1ccc(/C=C/c2c(C(=O)/C=C/c3ccccc3)c(C)nc3ccccc23)cc1 = 11.1
• Cc1ccc2[nH]c(=S)[nH]c(=O)c2c1 = 94.7
• O=C1OCC2=C1C(c1cccc(C(F)(F)F)c1)c1cc3c(cc1N2CCO)CCC3 (stereo not given) = -18.4
• COC(=O)c1[nH]nc(OC)c1C1(C(C#N)c2nc3ccccc3s2)CCCc2ccccc21 (stereo not given) = 98.4
• COc1ccc2c(c1)c(C(=O)c1nc(-c3cn(C)c4ccccc34)no1)cn2C = 69.6
• CCOC(=O)C(=Cc1ccc(C#N)cc1)C(=O)OCC = -24.6
• Cc1ccc(C(=O)Nc2nc3c(s2)CN(Cc2ccccc2)CC3)cn1 = 65.9
• O=C(CCCCCCCCC(=O)N/N=C\c1ccccc1O)N/N=C\c1ccccc1O = 34.3
• COc1ccc(Oc2nc(Nc3ccc(N4CCOCC4)cc3)ncc2NC(=O)c2cccc(C(F)(F)F)c2)cc1 = 0.64
• CCN(CC)CCCN1C(=O)c2c(c(C)c3c(oc4cc(OC)ccc43)c2C)C1=O = 104
• C=C1C(=O)O[C@H]2[C@H]1CC/C(CNS(=O)(=O)c1ccc3ccccc3c1)=C\CC[C@@]1(C)O[C@@H]21 = -78.6
• COC(=O)[C@H]1Cc2c([nH]c3ccccc23)[C@@H](c2cccs2)N1 = 78.9
• [Cu+].[NH-][C@H]1C[N-]C(=O)[C@H]([C@H]2CCN=C(N)N2)[N-]C(=O)/C(=C\NC(N)=O)[N-]C(=O)[C@H](CNC(=O)C[C@@H](N)CCCN)[N-]C(=O)[C@H](CO)[N-]C1=O = 85.6
• COc1ccc(-c2nn3c(-c4cc(F)c(Cl)cc4Cl)nnc3s2)cc1 = 23.1
• COc1ccc(C(=O)N/N=C/c2ccc(O)cc2O)cc1Nc1ccnc(C(F)(F)F)c1 = 36.2

Measured values drawn from PubChem BioAssay (NCI) for this set.
